Below is a list of entries, each paired with its recorded growth inhibition value.
Measurement notes: NCI Yeast Anticancer Drug Screen. Data for the mec2-1 strain (AID 157)
Applied conditions: S. cerevisiae mec2-1 strain, at 50.0 µM, stronger effect = higher value
This is part of a sample that, as a whole, favours compounds with a hit. Of some 79,000 tested, about 15% had one in any assay.

# Compound, Value unit, growth inhibition
records = [
    ("BrCCCOc1ccccc1", "%", -32.8),
    ("CCSC(OC(C)=O)C(Nc1ccc([N+](=O)[O-])cc1[N+](=O)[O-])C(OC(C)=O)C(OC(C)=O)C(COC(C)=O)OC(C)=O (configuration not stated)", "%", 10.8),
    ("CN(CO)N=Nc1ccc(C(F)(F)F)cc1", "%", -0.65),
    ("C=CCN1C(SC)=NC(=O)C1(c1ccccc1)c1ccccc1", "%", 9.95),
    ("CC(C)(C)C1CC[C@H]2c3c([nH]c4ccc(Br)cc34)[C@H]3C(=O)N(c4ccccc4)C(=O)[C@H]3[C@H]2C1 (some centres not stated)", "%", -2.7),
    ("C=CCn1c(SC)nc2c(c1=O)CCCC2", "%", -13.4),
    ("NC(N)=NC(=O)c1ccccc1", "%", -12.2),
    ("C/C(=C\\O[Si](C)(C)C)c1ccccc1", "%", 23.9),
    ("CCCOC(=O)C(=O)OCCC", "%", 21.6),
    ("CC1(C)N=C(C(N)=O)c2ncn(CCCO)c2N1", "%", -12.6),
    ("O=C(O)C1SCCS1", "%", 14.7),
    ("CN(C)C(=S)c1cccc2ccccc12", "%", -10.5),
]

The reported measurements were obtained from PubChem BioAssay (NCI).
